measurement.notes: soluble on expression in E. coli; label from the status in PepcDB or PDB records
value.type: soluble on expression in E. coli

seq.string	result
GMSEIDANYRALAQQVADKVAGRVIALDRLPESLLTAYRSLCDELLADRDGRFTRAWDQLPDSASSLFERCVFHGFYLANAWIQLSIVARDISELQDTDEAIAEQEYSGLYVRVAEAALKESVKKLKKARTDRSMYNSMREVMGI	soluble
AHHHHHHGSKLKFWREVAIDIISDFETTIMPFFGNPDGGKLVKISPSGDETKLVDKLAEDLILSRITELGVNVVSEEVGVIDNESEYTVIVDPLDGSYNFIAGIPFFALSLAVFKKDKPIYAIIYEPMTERFFEGIPGEGAFLNGKRIKVRKTPDEKPSISFYSRGKGHEIVKHVKRTRTLGAIALELAYLAMGALDGVVDVRKYVRPTDIAAGTIIAKEAGALIKDSAGKDIDISFNATDRLDVIAVNSEELLKTILSLLE	soluble

Values were extracted from the DeepSol protein solubility set.
